# method-description: Acute toxicity in mice
# Format: in vivo
# measurement-conditions: mouse, in vivo, sc; mice
test-readout: LD50

The reported value for N[C@@H](CC(=O)CO)C(=O)O [(S)-2-amino-5-hydroxy-4-oxopentanoicacid] in terms of LD50 is ≥ 5000 mg/kg

---

# method-description: Acute toxicity in mice
# Type: in vivo
# measurement-conditions: mouse, in vivo, ip; mice
test-readout: LD50

The reported value for N[C@@H](CC(=O)CO)C(=O)O [(S)-2-amino-5-hydroxy-4-oxopentanoicacid] in terms of LD50 is ≥ 5000 mg/kg

---

# method-description: Acute toxicity in mice
# Format: in vivo
# measurement-conditions: mouse, in vivo, po; mice
test-readout: LD50

The reported value for N[C@@H](CC(=O)CO)C(=O)O [(S)-2-amino-5-hydroxy-4-oxopentanoicacid] in terms of LD50 is ≥ 6000 mg/kg
